# measured-on: Endothelin receptor type B (Sus scrofa, UniProt P35463)
# Sequence (P35463 whole entry): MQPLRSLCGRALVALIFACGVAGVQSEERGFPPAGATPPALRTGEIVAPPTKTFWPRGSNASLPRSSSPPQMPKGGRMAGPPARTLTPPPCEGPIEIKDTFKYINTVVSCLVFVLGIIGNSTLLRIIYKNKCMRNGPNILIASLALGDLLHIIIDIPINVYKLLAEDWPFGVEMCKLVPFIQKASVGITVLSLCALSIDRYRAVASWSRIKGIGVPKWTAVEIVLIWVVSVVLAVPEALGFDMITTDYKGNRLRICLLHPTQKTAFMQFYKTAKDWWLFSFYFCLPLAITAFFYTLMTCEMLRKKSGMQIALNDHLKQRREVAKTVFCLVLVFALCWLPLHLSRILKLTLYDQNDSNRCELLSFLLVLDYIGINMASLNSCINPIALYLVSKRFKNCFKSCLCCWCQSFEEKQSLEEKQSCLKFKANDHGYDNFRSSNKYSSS
# assay-method-text: Inhibition of specific binding of [125I]ET1 (endothelin 1) to endothelin B receptor of porcine kidney membranes
# label = fulfilled if IC50 < 3 µM else not fulfilled

Q: Determine if Cc1cc(=O)n(C(C(=O)NS(=O)(=O)c2ccc(C(C)C)cc2)c2ccc3c(c2)OCO3)nc1C (configuration not stated) shows IC50 strictly lower than 3 µM.
Result: not fulfilled

Q: Determine if COc1ccc(C2=NN(C(C(=O)NS(=O)(=O)c3ccc(C(C)C)cc3)c3ccc4c(c3)OCO4)C(=O)CC2)c(OC)c1 (configuration not stated) shows IC50 strictly lower than 3 µM.
Result: not fulfilled

Q: Determine if CC(C)c1ccc(S(=O)(=O)NC(=O)C(c2ccc3c(c2)OCO3)n2nc3c(cc2=O)CCC3)cc1 (configuration not stated) shows IC50 strictly lower than 3 µM.
Result: fulfilled

Q: Determine if Cc1ccc(=O)n(C(C(=O)NS(=O)(=O)c2ccc(-c3ccccc3)cc2)c2ccc3c(c2)OCO3)n1 (configuration not stated) shows IC50 strictly lower than 3 µM.
Result: fulfilled

Q: Determine if COc1ccc(C2=NN(C(C(=O)NS(=O)(=O)c3ccc(C(C)C)cc3)c3ccc4c(c3)OCO4)C(=O)CC2)cc1OC (configuration not stated) shows IC50 strictly lower than 3 µM.
Result: not fulfilled

Q: Determine if CC(C)c1ccc(S(=O)(=O)NC(=O)C(c2ccc3c(c2)OCO3)n2nc(C3CC3)ccc2=O)cc1 (configuration not stated) shows IC50 strictly lower than 3 µM.
Result: fulfilled

Q: Determine if Cc1cc(C)c(=O)n(C(C(=O)NS(=O)(=O)c2ccc(C(C)(C)C)cc2)c2ccc3c(c2)OCO3)n1 (single isomer, unassigned; form 2) shows IC50 strictly lower than 3 µM.
Result: fulfilled

Q: Determine if Cc1ccc(=O)n(C(C(=O)NS(=O)(=O)c2ccc(C(C)(C)C)cc2)c2ccc3c(c2)OCO3)n1 (configuration not stated) shows IC50 strictly lower than 3 µM.
Result: fulfilled

Q: Determine if Cc1cc(C)c(=O)n(C(C(=O)NS(=O)(=O)c2ccc(C(C)(C)C)cc2)c2ccc3c(c2)OCO3)n1 (single isomer, unassigned; form 1) shows IC50 strictly lower than 3 µM.
Result: not fulfilled

Q: Determine if COc1ccc(OC)c(C2=NN(C(C(=O)NS(=O)(=O)c3ccc(C(C)C)cc3)c3ccc4c(c3)OCO4)C(=O)CC2)c1 (configuration not stated) shows IC50 strictly lower than 3 µM.
Result: not fulfilled

Q: Determine if Cc1ccc(=O)n(C(C(=O)NS(=O)(=O)c2ccc(Br)cc2)c2ccc3c(c2)OCO3)n1 (configuration not stated) shows IC50 strictly lower than 3 µM.
Result: not fulfilled

Q: Determine if COc1ccc(-c2cc(C)c(=O)n(C(C(=O)NS(=O)(=O)c3ccc(C(C)C)cc3)c3ccc4c(c3)OCO4)n2)cc1 (configuration not stated) shows IC50 strictly lower than 3 µM.
Result: not fulfilled

Q: Determine if CC(C)c1ccc(S(=O)(=O)NC(=O)C(c2ccc3c(c2)OCO3)N2N=C(c3ccccc3)CCC2=O)cc1 (configuration not stated) shows IC50 strictly lower than 3 µM.
Result: not fulfilled

Q: Determine if CCCc1cc(C(=O)O)ccc1OC(C(=O)NS(=O)(=O)c1ccc(C(C)C)cc1)c1ccc2c(c1)OCO2 (configuration not stated) shows IC50 strictly lower than 3 µM.
Result: fulfilled

Q: Determine if COc1ccc(C2=NN(C(C(=O)NS(=O)(=O)c3ccc(C(C)C)cc3)c3ccc4c(c3)OCO4)C(=O)CC2)cc1 (configuration not stated) shows IC50 strictly lower than 3 µM.
Result: not fulfilled

Q: Determine if CCc1cc(C)nn(C(C(=O)NS(=O)(=O)c2ccc(C(C)C)cc2)c2ccc3c(c2)OCO3)c1=O (configuration not stated) shows IC50 strictly lower than 3 µM.
Result: fulfilled

Q: Determine if CC(C)c1ccc(S(=O)(=O)NC(=O)C(c2ccc3c(c2)OCO3)N2N=C(c3ccc(Cl)cc3)CCC2=O)cc1 (configuration not stated) shows IC50 strictly lower than 3 µM.
Result: not fulfilled
